Just for reference, patent US20240018502A1 is where these values come from.

Overview of reported EC50 hC3 cleavage across a group of binders:
Biological target: plasma purified human complement protein C3 (human) (UniProt P01024)
Sequence (P01024 23-667, chain 1 of 2): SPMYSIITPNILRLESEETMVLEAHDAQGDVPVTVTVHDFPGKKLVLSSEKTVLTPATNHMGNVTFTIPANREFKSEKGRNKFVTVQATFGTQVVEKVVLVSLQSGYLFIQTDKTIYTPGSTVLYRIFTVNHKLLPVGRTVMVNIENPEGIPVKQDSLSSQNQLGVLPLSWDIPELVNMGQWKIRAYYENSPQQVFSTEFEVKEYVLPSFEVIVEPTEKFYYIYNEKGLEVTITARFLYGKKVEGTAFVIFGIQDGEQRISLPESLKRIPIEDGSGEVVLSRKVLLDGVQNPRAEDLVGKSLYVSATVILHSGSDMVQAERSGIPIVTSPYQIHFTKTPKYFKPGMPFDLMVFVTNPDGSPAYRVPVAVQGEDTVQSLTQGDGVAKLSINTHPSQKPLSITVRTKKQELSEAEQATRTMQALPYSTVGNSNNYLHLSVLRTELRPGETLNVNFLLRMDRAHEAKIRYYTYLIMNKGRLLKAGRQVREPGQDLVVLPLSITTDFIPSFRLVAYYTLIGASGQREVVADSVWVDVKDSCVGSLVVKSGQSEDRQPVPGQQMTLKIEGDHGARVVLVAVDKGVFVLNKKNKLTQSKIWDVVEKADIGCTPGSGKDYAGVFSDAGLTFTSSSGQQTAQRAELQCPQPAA
Sequence (P01024 672-1663, chain 2 of 2): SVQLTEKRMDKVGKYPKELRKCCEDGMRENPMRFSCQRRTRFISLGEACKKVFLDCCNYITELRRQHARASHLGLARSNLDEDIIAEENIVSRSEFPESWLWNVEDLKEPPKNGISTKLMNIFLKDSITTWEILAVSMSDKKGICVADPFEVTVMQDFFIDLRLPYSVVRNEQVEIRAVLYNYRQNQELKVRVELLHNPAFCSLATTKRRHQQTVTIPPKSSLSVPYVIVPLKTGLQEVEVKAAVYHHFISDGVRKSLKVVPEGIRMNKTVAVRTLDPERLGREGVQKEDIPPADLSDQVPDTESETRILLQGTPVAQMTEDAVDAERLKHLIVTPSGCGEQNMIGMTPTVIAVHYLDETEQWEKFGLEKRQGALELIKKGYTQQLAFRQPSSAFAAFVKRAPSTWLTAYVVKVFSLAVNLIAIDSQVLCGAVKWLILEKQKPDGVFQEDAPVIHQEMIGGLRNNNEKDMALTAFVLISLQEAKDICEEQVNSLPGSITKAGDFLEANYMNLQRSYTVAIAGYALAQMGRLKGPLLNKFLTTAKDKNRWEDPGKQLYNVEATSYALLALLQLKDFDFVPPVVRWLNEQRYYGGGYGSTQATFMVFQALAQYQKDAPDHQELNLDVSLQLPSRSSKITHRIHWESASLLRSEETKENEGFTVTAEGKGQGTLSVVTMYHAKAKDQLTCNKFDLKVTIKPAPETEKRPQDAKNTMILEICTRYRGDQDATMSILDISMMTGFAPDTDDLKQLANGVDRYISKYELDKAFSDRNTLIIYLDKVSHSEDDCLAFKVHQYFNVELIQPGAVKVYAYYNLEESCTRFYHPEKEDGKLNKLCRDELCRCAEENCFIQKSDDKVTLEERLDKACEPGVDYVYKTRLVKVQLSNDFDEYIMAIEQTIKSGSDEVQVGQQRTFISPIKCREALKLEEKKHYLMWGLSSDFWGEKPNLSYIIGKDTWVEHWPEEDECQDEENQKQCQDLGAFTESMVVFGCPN
Assay: cell-based or functional assay
Write the number in nM without appending the unit.

Requested read-out: EC50 hC3 cleavage. Entry: MTSP-1 protease domain Q38W/I41V/D96R/ins97aA/C122S/G151N (enzyme) VVGGTDADEGEWPWQVSLHALGWGHVCGASLISPNWLVSAAHCYIDDRGFRYSDPTQWTAFLGLHDQSQRSAPGVQERRLKRIISHPFFNRFATFDYDIALLELEKPAEYSSMVRPISLPDASHVFPAGKAIWVTGWGHTQYGGTNALILQKGEIRVINQTTCENLLPQQITPRMMCVGFLSGGVDSCQGDSGGPLSSVEADGRIFQAGVVSWGDGCAQRNKPGVYTRLPLFRDWIKENTGV
4.49

What value of EC50 hC3 cleavage has been reported for the following binder? MTSP-1 protease domain Q38H/I41A/D96A/ins97aA/C122S/G151D/Q192T (enzyme) VVGGTDADEGEWPWQVSLHALGHGHACGASLISPNWLVSAAHCYIDDRGFRYSDPTQWTAFLGLHDQSQRSAPGVQERRLKRIISHPFFNAFATFDYDIALLELEKPAEYSSMVRPISLPDASHVFPAGKAIWVTGWGHTQYGGTDALILQKGEIRVINQTTCENLLPQQITPRMMCVGFLSGGVDSCTGDSGGPLSSVEADGRIFQAGVVSWGDGCAQRNKPGVYTRLPLFRDWIKENTGV
9.25

Name the reported EC50 hC3 cleavage value associated with the binder MTSP-1 protease domain I41G/F97A/F99L/C122S/G151H/Q175L/Q192G/D217L (enzyme) VVGGTDADEGEWPWQVSLHALGQGHGCGASLISPNWLVSAAHCYIDDRGFRYSDPTQWTAFLGLHDQSQRSAPGVQERRLKRIISHPFFNDATLDYDIALLELEKPAEYSSMVRPISLPDASHVFPAGKAIWVTGWGHTQYGGTHALILQKGEIRVINQTTCENLLPQLITPRMMCVGFLSGGVDSCGGDSGGPLSSVEADGRIFQAGVVSWGLGCAQRNKPGVYTRLPLFRDWIKENTGV
47.8

So what's the measured EC50 hC3 cleavage for this one? MTSP-1 protease domain I41T/ins97aA/F99Y/C122S/Q175L/Q192A (enzyme) VVGGTDADEGEWPWQVSLHALGQGHTCGASLISPNWLVSAAHCYIDDRGFRYSDPTQWTAFLGLHDQSQRSAPGVQERRLKRIISHPFFNDFATYDYDIALLELEKPAEYSSMVRPISLPDASHVFPAGKAIWVTGWGHTQYGGTGALILQKGEIRVINQTTCENLLPQLITPRMMCVGFLSGGVDSCAGDSGGPLSSVEADGRIFQAGVVSWGDGCAQRNKPGVYTRLPLFRDWIKENTGV
28

Which EC50 hC3 cleavage is listed for MTSP-1 protease domain Q38H/I41S/D96K/ins97aS/C122S/G151P/Q192S (enzyme) VVGGTDADEGEWPWQVSLHALGHGHSCGASLISPNWLVSAAHCYIDDRGFRYSDPTQWTAFLGLHDQSQRSAPGVQERRLKRIISHPFFNKFSTFDYDIALLELEKPAEYSSMVRPISLPDASHVFPAGKAIWVTGWGHTQYGGTPALILQKGEIRVINQTTCENLLPQQITPRMMCVGFLSGGVDSCSGDSGGPLSSVEADGRIFQAGVVSWGDGCAQRNKPGVYTRLPLFRDWIKENTGV ?
25.6

Return reported EC50 hC3 cleavage; argument: MTSP-1 protease domain I41D/F99L/M117T/C122S/G151N/Q192T/A204D/D217E (enzyme) VVGGTDADEGEWPWQVSLHALGQGHDCGASLISPNWLVSAAHCYIDDRGFRYSDPTQWTAFLGLHDQSQRSAPGVQERRLKRIISHPFFNDFTLDYDIALLELEKPAEYSSTVRPISLPDASHVFPAGKAIWVTGWGHTQYGGTNALILQKGEIRVINQTTCENLLPQQITPRMMCVGFLSGGVDSCTGDSGGPLSSVEDDGRIFQAGVVSWGEGCAQRNKPGVYTRLPLFRDWIKENTGV
25.3

Dear colleague, I am looking for the recorded EC50 hC3 cleavage of the following binder: MTSP-1 protease domain I41G/F97S/F99L/C122S/G151N/Q175I/Q192T/D217T (enzyme) VVGGTDADEGEWPWQVSLHALGQGHGCGASLISPNWLVSAAHCYIDDRGFRYSDPTQWTAFLGLHDQSQRSAPGVQERRLKRIISHPFFNDSTLDYDIALLELEKPAEYSSMVRPISLPDASHVFPAGKAIWVTGWGHTQYGGTNALILQKGEIRVINQTTCENLLPQIITPRMMCVGFLSGGVDSCTGDSGGPLSSVEADGRIFQAGVVSWGTGCAQRNKPGVYTRLPLFRDWIKENTGV
84.4

Find the recorded EC50 hC3 cleavage belonging to MTSP-1 protease domain I41D/F97R/F99L/C122S/Q175R/Q192V/D217L (enzyme) VVGGTDADEGEWPWQVSLHALGQGHDCGASLISPNWLVSAAHCYIDDRGFRYSDPTQWTAFLGLHDQSQRSAPGVQERRLKRIISHPFFNDRTLDYDIALLELEKPAEYSSMVRPISLPDASHVFPAGKAIWVTGWGHTQYGGTGALILQKGEIRVINQTTCENLLPQRITPRMMCVGFLSGGVDSCVGDSGGPLSSVEADGRIFQAGVVSWGLGCAQRNKPGVYTRLPLFRDWIKENTGV and report it.
50.6

Reported EC50 hC3 cleavage for MTSP-1 protease domain I41R/F97A/F99L/C122S/G151N/Q175R/Q192G/D217Q (enzyme) VVGGTDADEGEWPWQVSLHALGQGHRCGASLISPNWLVSAAHCYIDDRGFRYSDPTQWTAFLGLHDQSQRSAPGVQERRLKRIISHPFFNDATLDYDIALLELEKPAEYSSMVRPISLPDASHVFPAGKAIWVTGWGHTQYGGTNALILQKGEIRVINQTTCENLLPQRITPRMMCVGFLSGGVDSCGGDSGGPLSSVEADGRIFQAGVVSWGQGCAQRNKPGVYTRLPLFRDWIKENTGV : what is it?
401

Param item = MTSP-1 protease domain Q38H/I41A/D60bV/F60eR/Y60gW/D96P/ins97aN/F97W/T98G/F99L/C122S/G151N/Q175L/Q192D (enzyme) VVGGTDADEGEWPWQVSLHALGHGHACGASLISPNWLVSAAHCYIDVRGRRWSDPTQWTAFLGLHDQSQRSAPGVQERRLKRIISHPFFNPWNGLDYDIALLELEKPAEYSSMVRPISLPDASHVFPAGKAIWVTGWGHTQYGGTNALILQKGEIRVINQTTCENLLPQLITPRMMCVGFLSGGVDSCDGDSGGPLSSVEADGRIFQAGVVSWGDGCAQRNKPGVYTRLPLFRDWIKENTGV ; retrieve measured EC50 hC3 cleavage.
2.54
